System: KRAS-mutant PDC multicell tumor spheroid viability;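 also: viability read after seven days of drug exposure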
test-details: Anticancer human tumor 521955-158-R2-J5-PDC patient-derived pancreatic carcinoma cell line growth inhibition [KRAS2]
condition-set: second compound 1 µM; first compound 0.1 µM; active compounds read low
Reported viability, T/C values are given for each entry in this list.

{"columns": ["compound", "output-unit", "viability, T/C"],
 "data": [
  ["CCNC(=O)CC1N=C(c2ccc(Cl)cc2)c2cc(OC)ccc2-n2c(C)nnc21 (stereo not given) + CNCc1ccccc1-c1csc(C(C)Nc2nc(C)nc3cc(OC)c(OC)cc23)c1", "%", 92.2],
  ["CCN1CCN(Cc2ccc(Nc3ncc(F)c(-c4cc(F)c5nc(C)n(C(C)C)c5c4)n3)nc2)CC1 + CNCc1ccccc1-c1csc(C(C)Nc2nc(C)nc3cc(OC)c(OC)cc23)c1", "%", 95.3],
  ["COc1cc(Nc2ncc3c(n2)-c2ccc(Cl)cc2C(c2c(F)cccc2OC)=NC3)ccc1C(=O)O + COc1cc2nc(C)nc(NC(C)c3cc(N)cc(C(F)(F)F)c3)c2cc1OC1CCOC1", "%", 35.4],
  ["COc1cc2nccc(Oc3ccc(NC(=O)C4(C(=O)Nc5ccc(F)cc5)CC4)cc3)c2cc1OC + CNCc1ccccc1-c1csc(C(C)Nc2nc(C)nc3cc(OC)c(OC)cc23)c1", "%", 99.9],
  ["CC(=O)OC12COC1CC(O)C1(C)C(=O)C(O)C3=C(C)C(OC(=O)C(O)C(NC(=O)OC(C)(C)C)c4ccccc4)CC(O)(C(OC(=O)c4ccccc4)C21)C3(C)C (stereo not given) + COc1cc2nc(C)nc(NC(C)c3cc(N)cc(C(F)(F)F)c3)c2cc1OC1CCOC1", "%", 14],
  ["COc1cc2nccc(Oc3ccc(NC(=O)C4(C(=O)Nc5ccc(F)cc5)CC4)cc3)c2cc1OC + C=CC(=O)N1CCN(c2nc(=O)n(-c3c(C)ccnc3C(C)C)c3nc(-c4c(O)cccc4F)c(F)cc23)C(C)C1", "%", 119],
  ["CN(C)C/C=C/C(=O)Nc1cc2c(Nc3ccc(F)c(Cl)c3)ncnc2cc1O[C@H]1CCOC1 + C=CC(=O)N1CCN(c2nc(OCC3CCCN3C)nc3c2CCN(c2cccc4cccc(C)c24)C3)CC1CC#N", "%", 54.4],
  ["CC(C)n1nc(-c2ccc3oc(N)nc3c2)c2c(N)ncnc21 + C=CC(=O)N1CCN(c2nc(OCC3CCCN3C)nc3c2CCN(c2cccc4cccc(C)c24)C3)CC1CC#N", "%", 18.3],
  ["COc1cc(Nc2ncc3c(n2)-c2ccc(Cl)cc2C(c2c(F)cccc2OC)=NC3)ccc1C(=O)O + C=CC(=O)N1CCN(c2nc(OCC3CCCN3C)nc3c2CCN(c2cccc4cccc(C)c24)C3)CC1CC#N", "%", 28.7],
  ["Cn1ncnc1[C@H]1c2n[nH]c(=O)c3cc(F)cc(c23)N[C@@H]1c1ccc(F)cc1 + C=CC(=O)N1CCN(c2nc(=O)n(-c3c(C)ccnc3C(C)C)c3nc(-c4c(O)cccc4F)c(F)cc23)C(C)C1", "%", 68.2],
  ["Cn1nccc1Nc1nccc(-c2cc3c(s2)C(C)(C)N(CCN2CCOCC2)C3=O)n1 + CNCc1ccccc1-c1csc(C(C)Nc2nc(C)nc3cc(OC)c(OC)cc23)c1", "%", 100],
  ["CC1COCCN1c1cc(-c2ccnn2C)c2ccnc(-c3ccn[nH]3)c2n1 (stereo not given) + C=CC(=O)N1CCN(c2nc(=O)n(-c3c(C)ccnc3C(C)C)c3nc(-c4c(O)cccc4F)c(F)cc23)C(C)C1", "%", 10.5],
  ["COC(=O)c1ccc2c(C(=Nc3ccc(N(C)C(=O)CN4CCN(C)CC4)cc3)c3ccccc3)c(O)[nH]c2c1 + CNCc1ccccc1-c1csc(C(C)Nc2nc(C)nc3cc(OC)c(OC)cc23)c1", "%", 103],
  ["COc1cc2nccc(Oc3ccc(NC(=O)C4(C(=O)Nc5ccc(F)cc5)CC4)cc3)c2cc1OC + COc1cc2nc(C)nc(NC(C)c3cc(N)cc(C(F)(F)F)c3)c2cc1OC1CCOC1", "%", 96.1],
  ["CC(C)NCC(C(=O)N1CCN(c2ncnc3c2C(C)CC3O)CC1)c1ccc(Cl)cc1 (stereo not given) + COc1cc2nc(C)nc(NC(C)c3cc(N)cc(C(F)(F)F)c3)c2cc1OC1CCOC1", "%", 86.6],
  ["Cn1nccc1Nc1nccc(-c2cc3c(s2)C(C)(C)N(CCN2CCOCC2)C3=O)n1 + COc1cc2nc(C)nc(NC(C)c3cc(N)cc(C(F)(F)F)c3)c2cc1OC1CCOC1", "%", 87.6],
  ["CC(=O)OC12COC1CC(O)C1(C)C(=O)C(O)C3=C(C)C(OC(=O)C(O)C(NC(=O)OC(C)(C)C)c4ccccc4)CC(O)(C(OC(=O)c4ccccc4)C21)C3(C)C (stereo not given) + C=CC(=O)N1CCN(c2nc(OCC3CCCN3C)nc3c2CCN(c2cccc4cccc(C)c24)C3)CC1CC#N", "%", 10],
  ["Cn1nccc1Nc1nccc(-c2cc3c(s2)C(C)(C)N(CCN2CCOCC2)C3=O)n1 + C=CC(=O)N1CCN(c2nc(OCC3CCCN3C)nc3c2CCN(c2cccc4cccc(C)c24)C3)CC1CC#N", "%", 52.1],
  ["CCNC(=O)CC1N=C(c2ccc(Cl)cc2)c2cc(OC)ccc2-n2c(C)nnc21 (stereo not given) + COc1cc2nc(C)nc(NC(C)c3cc(N)cc(C(F)(F)F)c3)c2cc1OC1CCOC1", "%", 85.2],
  ["COC(=O)c1ccc2c(C(=Nc3ccc(N(C)C(=O)CN4CCN(C)CC4)cc3)c3ccccc3)c(O)[nH]c2c1 + COc1cc2nc(C)nc(NC(C)c3cc(N)cc(C(F)(F)F)c3)c2cc1OC1CCOC1", "%", 90.3]
]}
